System: (TSC2−/−, p53−/−) MEF
PROCEDURE SUMMARY: 10-point dose response, cell viability (CellTiter-Glo)
Assay type: cell-based
CONDITION CONTEXT: Mus musculus; cell type MEF TSC2 −/− p53 −/−; 72 h; average of two experiments
RECORDED METRIC: IC50 (nM)
Give your result in nM as a bare value.

Query: Tell us which IC50 value is on record for `Cc1cccc(/C=N/Nc2cc(N3CCOCC3)nc(OCCc3ccccn3)n2)c1`
Result: 28.8

* * *

PROCEDURE SUMMARY: plasma protein binding
Assay type: in vitro ADME
CONDITION CONTEXT: dog plasma proteins
RECORDED METRIC: fraction unbound

Query: Tell us which fraction unbound value is on record for Cc1cccc(/C=N/Nc2cc(N3CCOCC3)nc(OCCc3ccccn3)n2)c1 [apilimod free base]
Result: < 0.01
